# ASSAYED SYSTEM: CDK-9/Cyclin T1 (Homo sapiens, UniProt P50750)
# Sequence (P50750 whole entry): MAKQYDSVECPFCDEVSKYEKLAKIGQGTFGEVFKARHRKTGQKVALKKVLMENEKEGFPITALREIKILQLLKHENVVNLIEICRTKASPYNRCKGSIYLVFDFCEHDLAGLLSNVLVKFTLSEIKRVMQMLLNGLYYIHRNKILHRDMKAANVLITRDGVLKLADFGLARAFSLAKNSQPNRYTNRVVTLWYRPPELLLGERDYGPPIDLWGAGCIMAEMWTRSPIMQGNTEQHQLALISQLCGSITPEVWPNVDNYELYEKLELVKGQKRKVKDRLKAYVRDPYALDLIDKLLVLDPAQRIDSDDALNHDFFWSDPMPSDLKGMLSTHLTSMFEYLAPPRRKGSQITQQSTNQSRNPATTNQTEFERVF
# Sequence (O60563 whole entry partner): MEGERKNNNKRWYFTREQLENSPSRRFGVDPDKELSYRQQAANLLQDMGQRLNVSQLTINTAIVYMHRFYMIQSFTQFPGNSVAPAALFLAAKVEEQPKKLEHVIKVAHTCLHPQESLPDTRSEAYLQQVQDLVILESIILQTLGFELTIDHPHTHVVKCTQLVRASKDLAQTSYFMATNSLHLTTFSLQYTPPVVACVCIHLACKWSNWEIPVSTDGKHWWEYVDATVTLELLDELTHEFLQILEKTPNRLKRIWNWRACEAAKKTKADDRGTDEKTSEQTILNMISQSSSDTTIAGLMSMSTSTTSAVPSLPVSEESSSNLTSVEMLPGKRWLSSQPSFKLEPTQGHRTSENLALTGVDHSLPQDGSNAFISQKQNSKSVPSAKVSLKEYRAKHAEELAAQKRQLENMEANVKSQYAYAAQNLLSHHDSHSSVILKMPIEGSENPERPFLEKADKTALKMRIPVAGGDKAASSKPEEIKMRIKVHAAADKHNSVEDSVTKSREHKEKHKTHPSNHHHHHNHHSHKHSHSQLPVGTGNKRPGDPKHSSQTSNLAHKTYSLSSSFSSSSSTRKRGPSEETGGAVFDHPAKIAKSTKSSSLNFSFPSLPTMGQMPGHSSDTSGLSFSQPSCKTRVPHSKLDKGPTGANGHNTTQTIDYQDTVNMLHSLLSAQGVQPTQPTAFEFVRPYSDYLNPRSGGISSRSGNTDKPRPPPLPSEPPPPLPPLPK
# ASSAY: CDK inhibition assay, CDK-9/Cyclin T1 against substrate peptide, 33P-ATP
# Type: biochemical
# RECORDED CONDITIONS: at 500 nM; read-out: inhibition against CDK9
READOUT TYPE: inhibition at 0.5 µM

Example entries begin here.
>>> print(df.to_string())
                            smiles_notation          readout_type  value_measured
0  Fc1ccc(-c2cnc3[nH]cc(-c4ccnc(NC5CC5)n4)c3c2)cc1  inhibition at 0.5 µM           > 70%
1  c1ccc2[nH]c(-c3cnc4[nH]cc(-c5ccnc(NC6CCCCCC6)n5)c4c3)cc2c1  inhibition at 0.5 µM           > 70%
2  c1ccc2c(-c3cnc4[nH]cc(-c5ccnc(NC6CC6)n5)c4c3)nccc2c1  inhibition at 0.5 µM           > 50%
3  CSc1ccccc1-c1cnc2[nH]cc(-c3ccnc(NC4CC4)n3)c2c1  inhibition at 0.5 µM           > 70%

Looking for the measured inhibition at 0.5 µM of c1ccc(CCNc2nccc(-c3c[nH]c4ncc(-c5cccnc5)cc34)n2)cc1 , can you help?
> 70%

Can you handle c1ccc2sc(-c3cnc4[nH]cc(-c5ccnc(NC6CCCCCC6)n5)c4c3)cc2c1 next?
> 70%

Can you handle c1ccc2c(-c3cnc4[nH]cc(-c5ccnc(NC6CCCC6)n5)c4c3)nccc2c1 next?
> 50%

Can you handle CSc1ccc(-c2cnc3[nH]cc(-c4ccnc(NC5CCCCCC5)n4)c3c2)cc1 next?
> 50%

Can you handle c1ccc2c(-c3cnc4[nH]cc(-c5ccnc(NC6CCCCCC6)n5)c4c3)nccc2c1 next?
> 70%

Can you handle c1ccc2[nH]c(-c3cnc4[nH]cc(-c5ccnc(NC6CCCC6)n5)c4c3)cc2c1 next?
> 50%

Can you handle c1cc(-c2c[nH]c3ncc(-c4ccoc4)cc23)nc(NC2CCCC2)n1 next?
> 50%

* * *

Each record here notes measured inhibition at 0.5 µM.
# ASSAYED SYSTEM: CDK-2/cyclin A (Homo sapiens, UniProt P24941)
# ASSAY: CDK inhibition assay, CDK-2/cyclin A against Histone HI, 33P-ATP
# Assay type: biochemical
# RECORDED CONDITIONS: at 500 nM; read-out: inhibition against CDK2
# Protocol: Compounds were evaluated for their ability to inhibit CDK2 and CDK9 as given below. CDK-2/cyclin A (5-20 mU diluted in 50 mM Hepes pH 7.5, 1 mM DTT, 0.02% Brij35, 100 mM NaCl) was assayed against Histone HI in a final volume of 25.5 µl containing 50 mM Hepes pH7.5, 1 mM DTT, 0.02% Brij35, 100 mM NaCl, Histone HI (1 mg/ml), 10 mM magnesium acetate and 0.02 mM [33P-g-ATP](500-1000 cpm/pmole) and incubated for 30 min at room temperature. […]

Example entries begin here.
>>> print(df.to_string())
                                   compound                            assayed_system          readout_type  value_measured
0  Clc1ccc(-c2cnc3[nH]cc(-c4ccnc(NC5CCCCCC5)n4)c3c2)cc1 [1A52]  CDK-2/cyclin A (Homo sapiens, UniProt P24941)  inhibition at 0.5 µM           > 70%
1  CCc1ccccc1-c1cnc2[nH]cc(-c3ccnc(NC4CC4)n3)c2c1 [1A10]  CDK-2/cyclin A (Homo sapiens, UniProt P24941)  inhibition at 0.5 µM           > 70%
2  CSc1ccc(-c2cnc3[nH]cc(-c4ccnc(NC5CCCC5)n4)c3c2)cc1 [1A28]  CDK-2/cyclin A (Homo sapiens, UniProt P24941)  inhibition at 0.5 µM           > 50%
3  Fc1ccc(-c2cnc3[nH]cc(-c4ccnc(NC5CC5)n4)c3c2)cc1 [1A2]  CDK-2/cyclin A (Homo sapiens, UniProt P24941)  inhibition at 0.5 µM           > 70%
4  FC(F)(F)c1cccc(-c2cnc3[nH]cc(-c4ccnc(NC5CC5)n4)c3c2)c1 [1A4]  CDK-2/cyclin A (Homo sapiens, UniProt P24941)  inhibition at 0.5 µM           > 70%

Looking for the measured inhibition at 0.5 µM of CCc1ccccc1-c1cnc2[nH]cc(-c3ccnc(N)n3)c2c1 [1C10] , can you help?
> 70%

Can you handle c1cc(-c2c[nH]c3ncc(-c4ccoc4)cc23)nc(NC2CCCCCC2)n1 [1A56] next?
> 70%

Can you handle CCc1ccccc1-c1cnc2[nH]cc(-c3ccnc(NC4CCCC4)n3)c2c1 [1A30] next?
> 50%

Can you handle c1ccc2sc(-c3cnc4[nH]cc(-c5ccnc(NC6CCCCCC6)n5)c4c3)cc2c1 [1A58] next?
> 70%

* * *

# ASSAYED SYSTEM: CDK-2/cyclin A (Homo sapiens)
# ASSAY: CDK inhibition assay, CDK-2/cyclin A against Histone HI, 33P-ATP
# Format: biochemical
# RECORDED CONDITIONS: at 500 nM; read-out: inhibition against CDK2
Each record here notes measured inhibition at 0.5 µM.

Example entries begin here.
                            smiles_notation  value_measured
0  Clc1ccc(-c2cnc3[nH]cc(-c4ccnc(NC5CC5)n4)c3c2)cc1           > 70%
1  CSc1ccc(-c2cnc3[nH]cc(-c4ccnc(NC5CC5)n4)c3c2)cc1           > 70%
2  COc1ccc(-c2cnc3[nH]cc(-c4ccnc(NCCc5ccccc5)n4)c3c2)cc1           > 50%
3  FC(F)(F)c1cccc(-c2cnc3[nH]cc(-c4ccnc(NCCc5ccccc5)n4)c3c2)c1           > 70%

Next item in the queue.
Looking for the measured inhibition at 0.5 µM of c1ccc(CCNc2nccc(-c3c[nH]c4ncc(-c5cc6ccccc6s5)cc34)n2)cc1 , can you help?
> 50%

* * *

Each record here notes measured inhibition at 0.5 µM.
# ASSAYED SYSTEM: CDK-2/cyclin A (Homo sapiens)
# ASSAY: CDK inhibition assay, CDK-2/cyclin A against Histone HI, 33P-ATP
# Type: biochemical
# RECORDED CONDITIONS: at 500 nM; Table-6; read-out: In vitro CDK2 % of inhibition

Example entries begin here.
In [3]: df
Out[3]:
                            smiles_notation  value_measured
0  CSc1ccccc1-c1cnc2[nH]cc(-c3ccnc(NC4CC4)n3)c2c1           > 70%
1  c1cc(-c2c[nH]c3ncc(-c4ccoc4)cc23)nc(NC2CCCC2)n1           > 50%
2  c1ccc2c(-c3cnc4[nH]cc(-c5ccnc(NC6CCCC6)n5)c4c3)nccc2c1           > 50%

Looking for the measured inhibition at 0.5 µM of c1ccc2c(-c3cnc4[nH]cc(-c5ccnc(NC6CC6)n5)c4c3)nccc2c1 , can you help?
> 50%

Can you handle COc1ccc2[nH]c(-c3cnc4[nH]cc(-c5ccnc(NC6CCCC6)n5)c4c3)cc2c1 next?
> 70%

Can you handle COc1ccc(-c2cnc3[nH]cc(-c4ccnc(NC5CCCC5)n4)c3c2)cc1 next?
> 50%

* * *

# ASSAYED SYSTEM: CDK-9/Cyclin T1 (Homo sapiens)
# ASSAY: CDK inhibition assay, CDK-9/Cyclin T1 against substrate peptide, 33P-ATP
# Type: biochemical
# RECORDED CONDITIONS: at 500 nM; Table-6; read-out: In vitro CDK9 % of inhibition
Each record here notes measured inhibition at 0.5 µM.

Param readout= inhibition at 0.5 µM; system= CDK-9/Cyclin T1 (Homo sapiens); entry= CSc1ccccc1-c1cnc2[nH]cc(-c3ccnc(NC4CCCC4)n3)c2c1 [1A29] ; returns value.
> 70%

* * *

# Tested on: MDA-MB435
# ASSAY: MTT assay on cancer cell line MDA-MB435
# Assay type: cell-based, Human
# RECORDED CONDITIONS: Homo sapiens, MDA-MB-435; MDA-MB435; at 10µM; Table 8; read-out: In vitro cell inhibition, % of inhibition, MDA-MB435
READOUT TYPE: inhibition at 10 µM

>>> print(df.to_string())
                            smiles_notation  value_measured
0  COc1ccc(-c2cnc3[nH]cc(-c4ccnc(NC5CCCCCC5)n4)c3c2)cc1           < 50%

Looking for the measured inhibition at 10 µM of Fc1ccc(-c2cnc3[nH]cc(-c4ccnc(NC5CCCCCC5)n4)c3c2)cc1 , can you help?
> 70%

Can you handle COc1ccc(-c2cnc3[nH]cc(-c4ccnc(NC5CC5)n4)c3c2)cc1 next?
> 70%

Can you handle c1cncc(-c2cnc3[nH]cc(-c4ccnc(NC5CC5)n4)c3c2)c1 next?
> 70%

Can you handle FC(F)(F)c1ccc(-c2cnc3[nH]cc(-c4ccnc(NCCc5ccccc5)n4)c3c2)cc1 next?
< 50%

Can you handle Clc1ccc(-c2cnc3[nH]cc(-c4ccnc(NCCc5ccccc5)n4)c3c2)cc1 next?
< 50%

Can you handle c1cncc(-c2cnc3[nH]cc(-c4ccnc(NC5CCCCCC5)n4)c3c2)c1 next?
> 50%

Can you handle Fc1ccc(-c2cnc3[nH]cc(-c4ccnc(NC5CC5)n4)c3c2)cc1 next?
> 70%

Can you handle c1ccc2c(-c3cnc4[nH]cc(-c5ccnc(NC6CC6)n5)c4c3)cccc2c1 next?
> 70%

Can you handle FC(F)(F)Oc1ccc(-c2cnc3[nH]cc(-c4ccnc(NC5CCCC5)n4)c3c2)cc1 next?
< 50%

Can you handle Fc1cccc(-c2cnc3[nH]cc(-c4ccnc(NCCc5ccccc5)n4)c3c2)c1 next?
> 50%

Can you handle FC(F)(F)c1ccc(-c2cnc3[nH]cc(-c4ccnc(NC5CCCCCC5)n4)c3c2)cc1 next?
< 50%

Can you handle Clc1ccc(-c2cnc3[nH]cc(-c4ccnc(NC5CC5)n4)c3c2)cc1 next?
> 70%

Can you handle c1ccc(CCNc2nccc(-c3c[nH]c4ncc(-c5cccnc5)cc34)n2)cc1 next?
< 50%

Can you handle Fc1ccc(-c2cnc3[nH]cc(-c4ccnc(NCCc5ccccc5)n4)c3c2)cc1 next?
> 50%

Can you handle c1cc(-c2c[nH]c3ncc(-c4ccoc4)cc23)nc(NC2CC2)n1 next?
> 70%
